- System: ECHORC (Watergrass (Calif.))
- assay.summary: Preemergence weed control under flooded paddy conditions
- Format: in vivo, Echinochloa oryzoides
- condition.details: 0.0313 kg/ha, rated 3-4 weeks after treatment
measurement.name: ECHORC herbicidal effect rating
Enter a number only.

Would you please look over these solved cases?
C=CCOC(=O)CC1SC(=Nc2cc(-n3c(=O)cc(C(F)(F)F)n(C)c3=O)c(F)cc2Cl)N(CC=C)C1=O (stereo not drawn)    5.0
CC(C)OC(=O)CN1C(=O)CSC1=Nc1cc(-n2c(=O)cc(C(F)(F)F)n(C)c2=O)c(F)cc1Cl    7.0

Which ECHORC herbicidal effect rating reading was recorded for the compound CCOC(=O)CN1C(=O)C(CC(=O)NOC)SC1=Nc1cc(-n2c(=O)cc(C(F)(F)F)n(C)c2=O)c(F)cc1Cl (stereo not drawn) ? 5.0

Values compiled from patent US20020137929A1.
